Origin of values: PubChem BioAssay (NCI)

Tested on: MOLT-4 leukemia
Assay: NCI-60 one-dose screen, 48 h
Settings: 10 µM unless noted
Compounds without any hit were thinned out: in the full panel of roughly 83,000, 20% have a hit. Active and inactive are the calls of the source. Rule for the calls: active = growth percent below 10; inactive = the rest.
Possible outcomes: active, inactive

[
  {
    "compound": "CC1(C)C(=O)/C(=C\\c2ccco2)C[C@]2(C)[C@H]3CC=C4[C@@H]5C[C@](C)(C(=O)O)CC[C@]5(C)CC[C@@]4(C)[C@]3(C)CC[C@@H]12",
    "studySystem": "MOLT-4 leukemia",
    "group": "active"
  },
  {
    "compound": "COc1ncc(-c2ccc3nccc(C#CCCCCC(=O)NO)c3c2)cc1NS(=O)(=O)c1ccc(F)cc1F",
    "studySystem": "MOLT-4 leukemia",
    "group": "active"
  },
  {
    "compound": "Cc1cc(NN=C(c2ccc(O)cc2)c2ccc(O)cc2)c([N+](=O)[O-])cc1[N+](=O)[O-]",
    "studySystem": "MOLT-4 leukemia",
    "group": "inactive"
  },
  {
    "compound": "CC(C)C1=NOC(=O)C1=Cc1cn(-c2ccccc2)nc1-c1ccc(Br)cc1",
    "studySystem": "MOLT-4 leukemia",
    "group": "active"
  },
  {
    "compound": "CSc1nc2sc3cc(Cl)c(Cl)cc3n2c(=N)c1C#N",
    "studySystem": "MOLT-4 leukemia",
    "group": "inactive"
  },
  {
    "compound": "Cc1nn(-c2ccccc2)c(N2CCOCC2)c1-c1nc2ccc([N+](=O)[O-])cc2[nH]1",
    "studySystem": "MOLT-4 leukemia",
    "group": "inactive"
  },
  {
    "compound": "COc1ncnc2c(-c3ccccc3)cn(COCc3ccccc3)c12",
    "studySystem": "MOLT-4 leukemia",
    "group": "active"
  },
  {
    "compound": "CCOC(=O)c1ccc2nc(-c3c(C)nn(-c4ccccc4)c3N3CCOCC3)[nH]c2c1",
    "studySystem": "MOLT-4 leukemia",
    "group": "inactive"
  },
  {
    "compound": "COc1cc2c(cc1OCCCCCOc1ccc(-n3c(C)nc4ccccc4c3=O)cc1)N=C[C@@H]1CCCN1C2=O",
    "studySystem": "MOLT-4 leukemia",
    "group": "active"
  },
  {
    "compound": "CC(C)CSc1ncnc2nc[nH]c12",
    "studySystem": "MOLT-4 leukemia",
    "group": "inactive"
  },
  {
    "compound": "NC(=O)c1cccc(-c2ccc(S(=O)(=O)Nc3ccc4c(c3)N(C(=O)C3CC3)CCC4)cc2)c1",
    "studySystem": "MOLT-4 leukemia",
    "group": "inactive"
  },
  {
    "compound": "CC(C)C1=NOC(=O)C1=Cc1cn(-c2ccco2)nc1-c1ccccc1",
    "studySystem": "MOLT-4 leukemia",
    "group": "inactive"
  },
  {
    "compound": "O=C(Nc1ccc(Nc2ccncc2)cc1)c1ccc([N+](=O)[O-])cc1",
    "studySystem": "MOLT-4 leukemia",
    "group": "active"
  },
  {
    "compound": "CC1Cc2c(Cl)ncnc2N(C)c2ccccc21 (centres undefined)",
    "studySystem": "MOLT-4 leukemia",
    "group": "active"
  },
  {
    "compound": "Cc1cc2c(C(C)C)c(O)c(O)c(C=NCc3ccoc3)c2c(O)c1-c1c(C)cc2c(C(C)C)c(O)c(O)c(C=NCc3ccco3)c2c1O",
    "studySystem": "MOLT-4 leukemia",
    "group": "inactive"
  },
  {
    "compound": "CC1(C)CC[C@]2(C(=O)O)CC[C@]3(C)C(=CC[C@@H]4[C@@]5(C)C/C(=C/c6cccnc6)[C@H](O)C(C)(C)[C@@H]5CC[C@]43C)[C@@H]2C1",
    "studySystem": "MOLT-4 leukemia",
    "group": "active"
  },
  {
    "compound": "C=CCCC1(C)NC(=O)NC1=O (centres undefined)",
    "studySystem": "MOLT-4 leukemia",
    "group": "inactive"
  },
  {
    "compound": "O=C(Nc1cccc(C2=NCCN2)c1)c1cccc(C(=O)Nc2cccc(C3=NCCN3)c2)c1",
    "studySystem": "MOLT-4 leukemia",
    "group": "inactive"
  },
  {
    "compound": "C#CCC(C(=O)OCC)C(=O)OCC",
    "studySystem": "MOLT-4 leukemia",
    "group": "inactive"
  }
]
